Data origin, for the record: patent US20160229839A1

MEASURED_ON: purified human Factor XIa (Homo sapiens, UniProt P03951)
Construct: purified human Factor XIa; purchased Sekisui Diagnostics
Sequence (P03951 388-625 limits assumed): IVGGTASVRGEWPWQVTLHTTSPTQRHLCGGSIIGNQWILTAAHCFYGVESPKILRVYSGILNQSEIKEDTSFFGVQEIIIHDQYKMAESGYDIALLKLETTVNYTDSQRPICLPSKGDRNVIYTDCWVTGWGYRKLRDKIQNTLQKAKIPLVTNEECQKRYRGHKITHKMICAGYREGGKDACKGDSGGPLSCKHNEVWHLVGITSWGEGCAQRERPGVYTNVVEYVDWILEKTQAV
Sequence (P03951 19-387 partner limits assumed): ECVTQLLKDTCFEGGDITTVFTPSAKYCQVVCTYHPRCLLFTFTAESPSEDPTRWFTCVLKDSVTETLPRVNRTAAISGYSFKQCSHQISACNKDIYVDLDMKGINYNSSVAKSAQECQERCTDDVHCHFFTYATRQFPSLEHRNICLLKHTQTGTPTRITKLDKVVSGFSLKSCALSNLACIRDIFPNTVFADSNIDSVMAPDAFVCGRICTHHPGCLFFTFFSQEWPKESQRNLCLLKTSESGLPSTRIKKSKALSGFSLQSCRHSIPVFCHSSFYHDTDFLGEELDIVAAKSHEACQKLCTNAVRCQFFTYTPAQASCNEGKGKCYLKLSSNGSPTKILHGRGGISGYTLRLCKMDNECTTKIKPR
EXPERIMENT_DESCRIPTION: Factor XIa Assay (fluorogenic substrate Z-Gly-Pro-Arg-AFC)
Format: biochemical
EXPERIMENTAL_SETUP: purified human Factor XIa 40 pM; Z-Gly-Pro-Arg-AFC 100 μM; 50 mM HEPES pH 7.4; read-out: hFXIa Ki (nM), Factor XIa inhibition
PARAMETER_MEASURED: Ki (nM)

COMPOUND	UNIT_NAME	READOUT_RELATION	READOUT_NUMBER
O=C(/C=C/c1cc(Cl)ccc1-n1cnnn1)N1CCCC(c2ccccc2)C1c1nc(-c2cccnc2)c[nH]1 (stereo not shown) [Example 1-12]	nM	=	570
O=C(O)c1ccc(NC(=O)C2C(c3ccc(F)cc3)CCCN2C(=O)/C=C/c2cc(Cl)ccc2-n2cnnn2)cc1 (stereo not shown) [Example 1-18]	nM	=	25.3
CC(C)(N)c1ccc(C(=O)N2CCCC(c3ccccc3)C2C(=O)Nc2ccc(C(=O)O)cc2)cc1 (stereo not shown) [Example 1-15]	nM	>	10000
O=C(/C=C/c1cc(Cl)ccc1-n1cnnn1)N1CCCC(c2ccccc2)C1c1nc(-c2ccccn2)c[nH]1 (stereo not shown) [Example 1-41]	nM	=	3270
COC(=O)Nc1ccc(-c2nc([C@H]3[C@@H](c4ccccc4)CCCN3C(=O)/C=C/c3cc(Cl)ccc3-n3cnnn3)[nH]c2Cl)cc1 [Example 1-64]	nM	>	10000
NCc1ccc(C(=O)N2CCCC(c3ccccc3)C2C(=O)Nc2ccc(C(=O)O)cc2)cc1C1CC1 (stereo not shown) [Example 1-43, 2,2,2-trifluoroacetate]	nM	=	169
O=C(Nc1ccc2[nH]ncc2c1)C1C(c2ccccc2)CCCN1C(=O)/C=C/c1cc(Cl)ccc1-n1cnnn1 (stereo not shown) [Example 1-60]	nM	=	145
O=C(NC12CCC(C(=O)O)(CC1)CC2)[C@@H]1[C@H](c2ccccc2)CCCN1C(=O)/C=C/c1cc(Cl)ccc1-n1cnnn1 [Example 1-72]	nM	=	63.6
O=C(/C=C/c1cc(Cl)ccc1-n1cnnn1)Nc1ccc(C2CCCN(C(=O)/C=C/c3cc(Cl)ccc3-n3cnnn3)C2C(=O)Nc2ccc(C(=O)O)cc2)cc1 (stereo not shown) [Example 1-34]	nM	=	24.9
CC(C)(C)OC(=O)c1ccc(NC(=O)C2C(C3CCCCC3)CCCN2C(=O)/C=C/c2cc(Cl)ccc2-n2cnnn2)cc1 (stereo not shown) [Example 1-3]	nM	>	10000
O=C1Cc2cc(-c3cnc([C@@H]4[C@H](c5ccccc5)CCCN4C(=O)/C=C/c4cc(Cl)ccc4-n4cnnn4)[nH]3)ccc2N1 [Example 1-63]	nM	=	207
O=C(O)C1CCC(NC(=O)C2C(c3ccc(F)cc3F)CCCN2C(=O)/C=C/c2cc(Cl)ccc2-n2cnnn2)CC1 (stereo not shown) [Example 1-19]	nM	>	10000
O=C(O)c1ccc(NC(=O)C2C(c3cccc(F)c3)CCCN2C(=O)/C=C/c2cc(Cl)ccc2-n2cnnn2)cc1 (stereo not shown) [Example 1-10]	nM	=	18.1
